All values here come from patent US20090300802A1.

Biological target: T1, AtPEPR1 (Arabidopsis thaliana, UniProt Q9SSL9 29-1123, glycosylated (about 180 kD, about 150 kD after PNGase F))
T1 sequence: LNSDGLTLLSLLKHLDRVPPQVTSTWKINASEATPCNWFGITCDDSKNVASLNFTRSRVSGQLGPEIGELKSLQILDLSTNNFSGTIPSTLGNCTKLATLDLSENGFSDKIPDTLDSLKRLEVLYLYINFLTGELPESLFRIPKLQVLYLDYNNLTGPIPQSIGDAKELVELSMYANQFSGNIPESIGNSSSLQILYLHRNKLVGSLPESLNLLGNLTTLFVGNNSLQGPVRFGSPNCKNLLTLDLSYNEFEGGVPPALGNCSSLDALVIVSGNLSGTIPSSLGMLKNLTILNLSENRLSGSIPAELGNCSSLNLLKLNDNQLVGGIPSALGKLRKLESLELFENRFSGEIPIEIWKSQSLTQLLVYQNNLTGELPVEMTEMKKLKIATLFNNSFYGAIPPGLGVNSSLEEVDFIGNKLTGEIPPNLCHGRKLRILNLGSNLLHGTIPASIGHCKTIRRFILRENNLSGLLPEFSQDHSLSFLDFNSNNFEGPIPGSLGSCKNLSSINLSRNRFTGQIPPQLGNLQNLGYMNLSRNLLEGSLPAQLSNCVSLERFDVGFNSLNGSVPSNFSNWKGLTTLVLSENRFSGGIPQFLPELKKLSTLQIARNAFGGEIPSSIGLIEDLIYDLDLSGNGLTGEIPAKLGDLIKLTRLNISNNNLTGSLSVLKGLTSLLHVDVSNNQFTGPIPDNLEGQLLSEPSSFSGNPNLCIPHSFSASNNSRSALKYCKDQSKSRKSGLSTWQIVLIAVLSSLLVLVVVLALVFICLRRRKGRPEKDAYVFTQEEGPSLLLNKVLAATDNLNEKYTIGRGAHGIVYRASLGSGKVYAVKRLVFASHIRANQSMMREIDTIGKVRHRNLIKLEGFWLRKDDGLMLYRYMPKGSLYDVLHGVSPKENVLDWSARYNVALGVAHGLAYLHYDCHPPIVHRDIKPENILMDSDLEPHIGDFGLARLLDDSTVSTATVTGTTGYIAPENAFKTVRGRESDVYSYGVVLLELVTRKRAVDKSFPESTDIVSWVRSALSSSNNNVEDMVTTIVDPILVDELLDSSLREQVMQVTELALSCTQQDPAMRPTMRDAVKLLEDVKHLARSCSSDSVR
Experiment: cell-based or functional assay
Consider the following binders; for each one, report its half-maximal activity, alkalinization of tobacco cells expressing AtPEPR1.
Field: numeric (nM). Do not append units.

**Q:** Field request: half-maximal activity, alkalinization of tobacco cells expressing AtPEPR1 | item: GLPGKKNVLKKSRESSGKPGGTN [AtPep5]
**A:** 0.25

**Q:** Field request: half-maximal activity, alkalinization of tobacco cells expressing AtPEPR1 | item: SLNVMRKGIRKQPVSSGKRGGVN [AtPep2]
**A:** 0.25

**Q:** Field request: half-maximal activity, alkalinization of tobacco cells expressing AtPEPR1 | item: ATKVKAKQRGKEKVSSGRPGQHN (23 amino acid peptide, chemically synthesized, not post-translationally modified; also called Arabidopsis Peptide 1; native AtPep1) [AtPep1]
**A:** 0.25

**Q:** Field request: half-maximal activity, alkalinization of tobacco cells expressing AtPEPR1 | item: VSGNVAARKGKQQTSSGKGGGTN [AtPep7]
**A:** 2.5

**Q:** Field request: half-maximal activity, alkalinization of tobacco cells expressing AtPEPR1 | item: ITAVLRRRPRPPPYSSGRPGQNN [AtPep6]
**A:** 0.25

**Q:** Field request: half-maximal activity, alkalinization of tobacco cells expressing AtPEPR1 | item: EIKARGKNKTKPTPSSGKGGKHN [AtPep4]
**A:** 2.5
